# target desc: T1, human IGF2^1-67 (mature insulin-like growth factor 2) (human, UniProt P01344 25-91, biotinylated (site not stated) where immobilised on the chip (Tables 1-4))
# T1 construct: mature; also called mature IGF2; biotinylated IGF2
# T1 sequence (P01344 25-91): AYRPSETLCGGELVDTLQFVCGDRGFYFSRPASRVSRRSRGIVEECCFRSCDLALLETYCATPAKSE
# protocol summary: SPR kinetic, biotin-IGF2 on chip, pH 7.4
metric name: kon

Answered cases to consult:
binder	kon
domain 11^AB5 P1597K (receptor, See m5) MKSNEHDDCQVTNPSTGHLFDLSSLSGRAGFTAAYAKGWGVYMSICGENENCPPGVGACFGQTRISVGKANKRLRYVDQVLQLVYKDGSKCPSKSGLSYKSVISFVCRPEAGPTNRPMLISLDKQTCTLFFSWHTPLACEQATECSV	9.54e+06 M⁻¹ s⁻¹
domain 11^AB3 Q1569R (receptor, See m5; also called AB3 + 73E (CD-Q1569R)) MKSNEHDDCQVTNPSTGHLFDLSSLSGRAGFTAAYSKSGVVYMSICGENENCPPGVGACFGRTRISVGKANKRLRYVDQVLQLVYKDGSPCPSKSGLSYKSVISFVCRPEAGPTNRPMLISLDKQTCTLFFSWHTPLACEQATECSV	1.36e+07 M⁻¹ s⁻¹
domain 11^AB3 Q1569R P1597H S1602H (receptor, See m5) MKSNEHDDCQVTNPSTGHLFDLSSLSGRAGFTAAYSKSGVVYMSICGENENCPPGVGACFGRTRISVGKANKRLRYVDQVLQLVYKDGSHCPSKHGLSYKSVISFVCRPEAGPTNRPMLISLDKQTCTLFFSWHTPLACEQATECSV	1.41e+07 M⁻¹ s⁻¹

Req: Look at this binder and give its reported kon. domain 11^AB3 P1597K S1602H (receptor, See m5) MKSNEHDDCQVTNPSTGHLFDLSSLSGRAGFTAAYSKSGVVYMSICGENENCPPGVGACFGQTRISVGKANKRLRYVDQVLQLVYKDGSKCPSKHGLSYKSVISFVCRPEAGPTNRPMLISLDKQTCTLFFSWHTPLACEQATECSV
Resp: 2.74e+06 M⁻¹ s⁻¹
